- System: CRAB 236; also: key: R, Resistant; I, Intermediate; S, Sensitive
- test-details: microbe, parasite or virus in culture
- Format: cell-based, Acinetobacter baumannii
- assay-setup: CRAB 236; CLSI interpretation of MIC
assay-endpoint: Interpretation

[
  {
    "molecule": "CO/N=C(\\C(=O)N[C@@H]1C(=O)N2C(C(=O)O)=C(CSc3nc(=O)c(=O)[nH]n3C)CS[C@H]12)c1csc(N)n1 [Ceftriaxone]",
    "target-desc": "CRAB 236",
    "result": "I"
  },
  {
    "molecule": "CNC(C)C1CCC(N)C(OC2C(N)CC(N)C(OC3OCC(C)(O)C(NC)C3O)C2O)O1 (stereo not shown) [Gentamicin]",
    "target-desc": "CRAB 236",
    "result": "R"
  },
  {
    "molecule": "CN(C)[C@@H]1C(O)=C(C(N)=O)C(=O)[C@@]2(O)C(O)=C3C(=O)c4c(O)cccc4[C@@](C)(O)[C@H]3C[C@@H]12 [Tetracycline]",
    "target-desc": "CRAB 236",
    "result": "R"
  },
  {
    "molecule": "C[C@@H](O)[C@H]1C(=O)N2C(C(=O)O)=C(S[C@@H]3CN[C@H](C(=O)N(C)C)C3)[C@H](C)[C@H]12 [Meropenem]",
    "target-desc": "CRAB 236",
    "result": "R"
  }
]
